TGT: T1, Recombinant human TREM2 (human, UniProt Q9NZC2 19-174)
T1 construct: Triggering receptor expressed on myeloid cells 2 (TREM2), human, recombinant; As I recall, this catalogue item is the extracellular domain with a C-terminal His tag; also called triggering receptor expressed on myeloid cells 2; hTREM2; source: bought: Sino Biological Inc. (#11084-H08H)
T1 sequence (looked up): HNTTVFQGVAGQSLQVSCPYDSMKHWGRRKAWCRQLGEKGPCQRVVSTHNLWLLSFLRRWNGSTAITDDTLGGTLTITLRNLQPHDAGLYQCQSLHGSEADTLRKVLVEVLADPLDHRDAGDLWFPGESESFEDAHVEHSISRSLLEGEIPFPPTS
ASSAY_NOTES: ELISA; competition: human TREM2 (40 nM) coated; 6 nM ApoE ε2 with 0-6 μM ApoE-mim149 or scrambled peptide, 1 h at RT; bound full-length ApoE detected with polyclonal anti-ApoE; one site-fit Ki
DETAILS: both partners purified
PROPERTY: Ki (nM)
Numbers only here, please. The scale is nM.

The reported Ki of the binder Ac-TEELRVRLASHLRKLRKRLL-NH2 (also called ApoE-mim149; source: synthetic peptide, bought: GenScript) [ApoE-mimetic peptide corresponding to amino acids 130–149] was 827
